system: HOP-62; assay: NCI tumour cell line growth inhibition, 48 h
The source made the active and inactive calls. Rule as the data show it: active = GI50 up to about 1.1 µM and inactive = higher.
Use one of these outcomes when replying: 1 = active, 0 = inactive

compound	study_target	label
COc1ccc2sc(-n3nc4ccccc4c3Nc3nc4ccc(OC)cc4s3)nc2c1	HOP-62	0
CCCCCc1cc2c(cc1O)CC[C@@H]1[C@@H]2CC[C@]2(C)[C@@H](O)CC[C@@H]12	HOP-62	0
CCOC(=O)C1=C(C)C2C3C(=O)NC(=O)C3C1(C)C1C(=O)NC(=O)C21 (stereo not given)	HOP-62	0
O=C(Nc1ccc(Cl)cc1)Oc1ccc(C(=S)Nc2ccc(Br)cc2)cc1	HOP-62	0
O=C(O)CCC(=O)OCN1C(=O)C2C3C=CC(C2C1=O)C1C2C(=O)N(COC(=O)CCC(=O)O)C(=O)C2C31 (stereo not given)	HOP-62	0
CCOC(=O)Cn1c(=O)ccn(COCCO)c1=O	HOP-62	0

What call does the record list for `Cc1cn(Cc2ccccc2CCl)c(=O)[nH]c1=O` ?
0

What call does the record list for CCCC1NC(C#N)(C#N)C(CCC)NC1(C#N)C#N (stereo not given) ?
0

What call does the record list for CC(=O)c1cccc(NC2C(N)C(NC(=O)N(C)C)(C(C)O)C(C)(O)C2(O)COC(=O)c2c(C)cccc2O)c1 (stereo not given) ?
1

What call does the record list for `O=c1cc(O)c2c(O)cc(O)cc2o1` ?
0
